Readings of amyloid nucleation score for the listed substances
Test Summary: amyloid nucleation score (Sup35N fusion, yeast selection) (log enrichment); library NNK1; higher = more nucleation; inactive = no reads after selection;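 note: zero at mode of non-aggregating sequences after 7 days selection at 30°C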
Just the number, please, no unit after it.

Use the examples below as a reference point.
YVFVWMRYTSFWVMNTFYSS    0.193
AGKCGIQWACEM    0.194
VSVNTVFH    0.36
WPNTPSVTKWTYLFVLHPRM    -0.854

query: # get_value(readout='amyloid nucleation score', item= `SESKGHHKCRRALLYRGM` )
result: 0.418

query: Request: `FYPIYGFRWTIFYQPALYNL`
result: -1.08

query: Request: `FNSRAICGEIVNIPHQSPGD`
result: 1.16

query: Request: `ELIFFDDHFTDWYLCFNNFG`
result: -1.29

query: Request: `YYSHIIQAGCWVVYRDVRLF`
result: 0.52

query: Request: `VYLACVSSPCLKS`
result: -0.2

query: Request: `PIFLGLFDDRYMG`
result: 0.116

query: Request: `GWYSFLPSRNYFK`
result: 4.92

query: Request: `RYMVGSENEIRL`
result: 0.583

query: Request: `SSKLSYWYKMAIESSFNVLH`
result: -0.083

query: Request: `SNIREPDFRCIGLATF`
result: 0.523

query: Request: `RLYIHHVIHVDKYNFGVYPP`
result: 0.245

query: Request: `VRQNNGQMFFYWSWFIGNNP`
result: 8.12

query: Request: `TIWLDCLMDKTYVFDCLFSF`
result: 0.587

query: Request: `QCSMGGRYVRQDS`
result: -0.197

* * *

Test Summary: amyloid nucleation score (Sup35N fusion, yeast selection) (log enrichment); library NNK2; higher = more nucleation; inactive = no reads after selection
Reported Metric: amyloid nucleation score
Just the number, please, no unit after it.

AMNVDIN    -0.641
YNMCYNG    -0.781
VNREYLLAVTVILQNVKTEE    8.61

query: # get_value(readout='amyloid nucleation score', item= `SGSMKCPSYRYYCPQNIFCT` )
result: 6.43

query: Request: `NFKNATIAFIGNMTMIVPRG`
result: 8.29

query: Request: `TTGNQLKKCVDKCGGRSGGE`
result: 0.938

* * *

Test Summary: amyloid nucleation score (Sup35N fusion, yeast selection) (log enrichment); library NNK1; higher = more nucleation; inactive = no reads after selection
Reported Metric: amyloid nucleation score
Just the number, please, no unit after it.

Use the examples below as a reference point.
SRTFVGGLGLVYEIFIVMAV    -0.301
DWRMWGF    -0.865

query: # get_value(readout='amyloid nucleation score', item= `SRYIGSSPARMMASWTFQGL` )
result: 4.01

query: Request: `SGWCGSTFSCERNPTVYSSC`
result: 1.96

query: Request: `RYYVSSLRPVRRQSRKDGCG`
result: -0.414

query: Request: `VVEARWNKAMHTNFLNVRES`
result: 0.601

query: Request: `INTKRVRSRHSTR`
result: -0.502

query: Request: `SRWFCYRLVFTFVGPTRHLD`
result: 0.172

* * *

Test Summary: amyloid nucleation score (Sup35N fusion, yeast selection) (log enrichment); library NNK1; higher = more nucleation; inactive = no reads after selection
# cutoff 0.3 applies to amyloid nucleation score; >= gives 1, < gives -1

Solved entries:
EVTDVRLS    1
GELLTLHITGLNEVLVNTSM    -1
AVGGDSMYSLQSGYKLILAS    -1
KTVVSELSVVNEVVA    -1

query: Does the substance `ISGNRSKVWNDGWIRPRYLC` have recorded amyloid nucleation score that is 0.3 or more?
result: 1

query: Request: `PEDFHNLFLKINGYLSYAFV`
result: -1

query: Request: `RLSNLVRPLDRLIGVVEVGM`
result: 1

query: Request: `NACFRYKAKMDRMSTRGANS`
result: 1

query: Request: `RIELLWRKVSGKCLVQDFDI`
result: -1

query: Request: `QRMCVYLGTLPLSLLGRMWG`
result: -1

* * *

Test Summary: amyloid nucleation score (Sup35N fusion, yeast selection) (log enrichment); library NNK2; higher = more nucleation; inactive = no reads after selection
Reported Metric: amyloid nucleation score

Use the examples below as a reference point.
LRWRSCGNELDFKLNGLDFE    0.586
RCIDSVLIMHITYFAAFGKL    5.08
DNGCELPFLFFMFASTVKWS    -0.78
FNIERCLLISGMLCSPAVEL    -0.602
YFFKRIW    inactive
YLLIPWKSKDPLHIGLLF    -0.381
DNCLASVFINVKEFSHLCLW    -0.451
ANQSVYLAEAVYQAGIEGRD    0.358

Next substance, amyloid nucleation score to be filled in.
query: # get_value(readout='amyloid nucleation score', item= `VFSLCGIYMRGHYSYWCYNK` )
result: inactive

* * *

Test Summary: amyloid nucleation score (Sup35N fusion, yeast selection) (log enrichment); library NNK3; higher = more nucleation; inactive = no reads after selection
Reported Metric: amyloid nucleation score

NFRCDICLPNLTRY    0.313
RILLFMHPMSICMSP    inactive
FILRVFMA    inactive
FGGLWLICSVVYTLNCRSMV    1.79
YAFISDYQYGILFYIKWYFG    inactive

query: # get_value(readout='amyloid nucleation score', item= `RKGHDVVAVYWADLHSSGIV` )
result: inactive

query: Request: `VVHYSLVVPSDGW`
result: inactive

query: Request: `DRRNNVRFVVLFSRRYCGQA`
result: inactive

query: Request: `LVMLMYVVPGFVGGDFTGDF`
result: inactive

* * *

Readings of amyloid nucleation score for the listed substances
Test Summary: amyloid nucleation score (Sup35N fusion, yeast selection) (log enrichment); library NNK2; higher = more nucleation; inactive = no reads after selection
Just the number, please, no unit after it.

Use the examples below as a reference point.
TVRFVRFYSPLWLSVTYRLT    0.412
TVGRWH    -0.939
TVGEPIIRLYRFVRFFCLAN    -1.79
SCVINM    1.55
RIYRRNQWVPGGDYSKGINL    -0.892
SATARKNILVSLGSVALFDR    -0.82

query: # get_value(readout='amyloid nucleation score', item= `NDRSSDWCCIPSKLRWSRSG` )
result: 4.1

query: Request: `CELRIFTCHDSCAVLDRWME`
result: 1.16

* * *

Test Summary: amyloid nucleation score (Sup35N fusion, yeast selection) (log enrichment); library NNK3; higher = more nucleation; inactive = no reads after selection
Reported Metric: amyloid nucleation score

Use the examples below as a reference point.
CAQTYPIRMYS    inactive
TIHHRCCSKWKSAWRAYWSI    inactive
AYQCHDDVVWWRCQMASCS    inactive
NCVYVLESD    -0.075
LYMKSTKLVLTKRDISTFRC    1.11
GLTTSYQPYILYIL    inactive

query: # get_value(readout='amyloid nucleation score', item= `DVTTDDSSFRYMLKLLRGIT` )
result: inactive

query: Request: `GILSKIDVSWWRMAVSVKCW`
result: inactive

query: Request: `YMRDVDFIRSEGG`
result: inactive

query: Request: `NSETRRIHSKVKLMLIVRLA`
result: inactive

query: Request: `LVVGVFKGSRSYVFK`
result: inactive

query: Request: `QTQKLFQYI`
result: inactive

query: Request: `NLTYNTSYAVVDVLRITCNF`
result: 2.56

query: Request: `ANSWIILHSNHFLQFVGIAS`
result: inactive

query: Request: `RMTMFRTEAAVVKRSVSTVV`
result: inactive

query: Request: `TNWDKNYYSCYIIKGLRWER`
result: inactive

query: Request: `PDVDLTTMLNNNMNYMYVKI`
result: inactive

* * *

Test Summary: amyloid nucleation score (Sup35N fusion, yeast selection) (log enrichment); library NNK1; higher = more nucleation; inactive = no reads after selection
# cutoff -0.3 applies to amyloid nucleation score; >= gives 1 (yes), < gives 0 (no)

Solved entries:
NLFTTSSCNLIFSTICFD    1 (yes)
RLNVILGLTSTLNYSSVMPR    1 (yes)
TWAHMQYDVWPDPTAEKDQV    1 (yes)
DFYFYKLSLIFKSAFRWFPV    0 (no)
VLATGVCACTGVYTFMTWWV    0 (no)

query: Does the sequence `SVAHMVDISFVVHPVMSTGN` have recorded amyloid nucleation score that is -0.3 or more?
result: 0 (no)

query: Request: `LKLGYMNLLISDRCAVIERY`
result: 1 (yes)

query: Request: `VNSNPSSGAFWI`
result: 1 (yes)

query: Request: `KTRSNMNFHCS`
result: 1 (yes)

query: Request: `LCYAGVVLQYVILDHKRSCD`
result: 1 (yes)
